FYI, the data here is from patent US20240317871A1.

Exercise: state measured ELISA signal for each of the binders provided.
Target: T1, murine HVEM (murine, UniProt Q80WM9 39-206, limits assumed); also: test concentration or dose not given here
T1 construct: also called Mouse
T1 sequence (looked up): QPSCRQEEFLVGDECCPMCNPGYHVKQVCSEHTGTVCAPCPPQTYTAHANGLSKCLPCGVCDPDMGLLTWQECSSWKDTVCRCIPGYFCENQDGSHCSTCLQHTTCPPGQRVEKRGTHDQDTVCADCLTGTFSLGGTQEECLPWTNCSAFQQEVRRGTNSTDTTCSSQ
Experiment: ELISA
Give bare numbers.

Would you please look over these solved cases?
{"binder": "Ab_024 (H5S15-1A1A) (antibody, V domains shown, also called Ab_24) VH: EVQLQQSGAELVKPGASVKLSCTASGFNIKDTYMHWVKQRPEQGLAWIGRIAPANGYTKYDPKFQGKATITTDTSSNTAYLHLSRLTSEDTAVYYCANYFGNTYDWFAFWGQGTLVTVSA VL: ENVLTQSPAIMSASPGEKVTMTCSAGSSVSYMHWYQQKSSTSPKLWIYDTSKLPSGVPGRFSGSGSGNSYSLTISSMEAEDVATYYCFQGSGFPLTFGSGTKLEIK", "ELISA signal": 0.044}
{"binder": "Ab_043 (H5S15-29A24A) (antibody, V domains shown, also called Ab_43) VH: EVQLQQSGAELVRPGALVKLSCKASGFNIKDDYMHWVKQRPEQGLEWIGWIDPENGNTIYDPKFQGKASITADTSSNTAYLQLSSLTSEDTAVYYCARGYSSSPYWGQGTLVTVSA VL: DIVLTQSPASLAVSLGQRATISCKASQSVDYDGNSYMNWYQQKPRQPPKLLIYAASNLESGIPARFRGSGSGTDFTLNIHPVEEEDAATYYCQQSNEDPFTFGSGTKLEIK", "ELISA signal": 0.043}
{"binder": "Ab_037 (H5S15-13A15A) (antibody, V domains shown, also called Ab_37) VH: QVQLKQSGPGLVQPSQSLSITCTVSGFSLTSYGVHWVRQSPGKGLEWLGVIWRGGSTDYNAAFMSRLSITKDNSKSQVFFKMNSLQADDTAIYYCAKTGFAYWGQGTLVTVSA VL: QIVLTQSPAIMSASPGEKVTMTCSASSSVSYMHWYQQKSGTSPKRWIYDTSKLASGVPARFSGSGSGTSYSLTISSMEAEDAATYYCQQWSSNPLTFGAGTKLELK", "ELISA signal": 0.043}
{"binder": "Ab_038 (H5S15-19A18A) (antibody, V domains shown, also called Ab_38) VH: QVQLKESGPGLVAPSQSLSITCTVSGFSLTGYGVNWVRQPPGKGLEWLGMIWGDGGTDYNSALKSRLSISKDNSKSQVFLKMNSLQTDDTARYYCARDNYHTVVNGDYWGQGTSVTVSS VL: ENVLTQSPAIMSASPGEKVTMTCRASSSVSSSYLHWYQQKSGASPKLWIYSTSNLASGVPARFSGSGSGTSYSLTISSVEAEDAATYYCQQYSGYPLTFGGGTKLEIK", "ELISA signal": 0.043}

Can you give me ELISA signal for all of these, one by one?
1. Ab_054 (H5S19-21A17C) (antibody, V domains shown, also called Ab_54) VH: QVQLKESGPGLVAPSQSLSITCTVSGFSLTSYGVHWVRQPPGKGLEWLGVIWAGGITNYNSALMSRLSISTDNSRSQVFLKMNSLQTDDTAMYYCARDWERDSSGPFPYWGQGTLVTVSA VL: DIQMTQTTSSLSASLGDRVTISCSASQGISNYLNWYQQKPDGTVKLLIYYTSSLHSGVPSRFSGSGSGTDYSLTISNLEPEDIATYFCQQYSKLPWTFGGGTKLEIK
2. Ab_080 (H5S20-27A23A) (antibody, V domains shown, also called Ab_80) VH: EVQLQQSGTVLARPGASVKMSCKASGYSFTSYWMHWLKQRPGQGLEWIGAIYPGNSDTVFNQKFKGKAKLTAVTSATTAYMELSSLTNEDSAVYYCTKEPRTIEGAWFTYWGQGTLVTVSA VL: DIVMTQSPSSLTVPAGEKVTMSCKSSQSLLNSENQKNYLTWYQQKPGQPPKLLIYWASTRESGVPDRFTGSGSGTDFTLTISSVQAEDLAVYYCQSDYSYPLTFGAGTKLELK

Reply:
0.042
0.048

Input Ab_006 (H5S14-5A5A) (antibody, V domains shown, also called Ab_6) VH: DVQLQESGPGLVKPSQSLSLTCTVTGYSITSDFAWNWIRQFPGNKLEWMGYIVYSGSTSYNPSLKSRISITRDTSKNQFFLQLNSVTAEDTATYFCTRGMDYWGQGTSVTVSS VL: QIVLTQSPAIISASLGEEVTLTCSASSSVSYMHWYQQKSGTSPKLLIYSTSNLASGVPSRFSGSGSGTFYSLTISSVEAEDAADYYCHQWSSYLTFGAGTKLELK . Output ELISA signal: 0.043
